# Lookup of reported GI50 keyed by entry
system: TK-10; experiment: NCI tumour cell line growth inhibition, 48 h
The source made the active and inactive calls. No stated cut-off is given here; in the data, active = GI50 up to about 1.1 µM and inactive = higher.

These recorded examples may help you get a feel for the data.
- compound: "O=C(NC1CCCCC1)c1c(O)[nH]c(=S)[nH]c1=O"
  observed_value: "> 100 µM (inactive)"
- compound: "Clc1ccc(-c2c(C3=NCCN3)nnn2-c2ccccc2)cc1"
  observed_value: "51.8 µM (inactive)"
- compound: "O=C(OCc1ccccc1)N(CCCCN(CCCNCc1ccccc1)C(=O)OCc1ccccc1)CCCNCc1ccccc1"
  observed_value: "1.58 µM (inactive)"
- compound: "Cc1c2n(c3ccccc13)S(=O)(=O)c1ccccc1-2"
  observed_value: "25.6 µM (inactive)"
- compound: "COC(=O)CC1CCN(C#N)CC1CC[N+](=O)[O-] (configuration not stated)"
  observed_value: "> 100 µM (inactive)"

Need GI50 of C=CCC(SC)C1=C(C)C(=O)c2ccccc21 (configuration not stated) , thanks.
> 10 µM (inactive)

Need GI50 of CC(C)OC(=O)C1=C2c3ncccc3C(=O)N2[C@@H](Cl)[C@@H](Cl)[C@@H]1Cl , thanks.
> 100 µM (inactive)

Need GI50 of CNC(=O)C1OC(n2cnc3c(NCc4cccc(I)c4)nc(Cl)nc32)C(O)C1O (configuration not stated) , thanks.
16.3 µM (inactive)

Need GI50 of O=C1Oc2ccccc2C(=O)/C1=C/N1C(=O)N/C(=C\c2ccccc2O)C1=O , thanks.
60.5 µM (inactive)
